Target: human c-Met (HGFR), full length, on the cell surface (human, UniProt P08581 25-1390)
Sequence (P08581 25-1390 limits assumed): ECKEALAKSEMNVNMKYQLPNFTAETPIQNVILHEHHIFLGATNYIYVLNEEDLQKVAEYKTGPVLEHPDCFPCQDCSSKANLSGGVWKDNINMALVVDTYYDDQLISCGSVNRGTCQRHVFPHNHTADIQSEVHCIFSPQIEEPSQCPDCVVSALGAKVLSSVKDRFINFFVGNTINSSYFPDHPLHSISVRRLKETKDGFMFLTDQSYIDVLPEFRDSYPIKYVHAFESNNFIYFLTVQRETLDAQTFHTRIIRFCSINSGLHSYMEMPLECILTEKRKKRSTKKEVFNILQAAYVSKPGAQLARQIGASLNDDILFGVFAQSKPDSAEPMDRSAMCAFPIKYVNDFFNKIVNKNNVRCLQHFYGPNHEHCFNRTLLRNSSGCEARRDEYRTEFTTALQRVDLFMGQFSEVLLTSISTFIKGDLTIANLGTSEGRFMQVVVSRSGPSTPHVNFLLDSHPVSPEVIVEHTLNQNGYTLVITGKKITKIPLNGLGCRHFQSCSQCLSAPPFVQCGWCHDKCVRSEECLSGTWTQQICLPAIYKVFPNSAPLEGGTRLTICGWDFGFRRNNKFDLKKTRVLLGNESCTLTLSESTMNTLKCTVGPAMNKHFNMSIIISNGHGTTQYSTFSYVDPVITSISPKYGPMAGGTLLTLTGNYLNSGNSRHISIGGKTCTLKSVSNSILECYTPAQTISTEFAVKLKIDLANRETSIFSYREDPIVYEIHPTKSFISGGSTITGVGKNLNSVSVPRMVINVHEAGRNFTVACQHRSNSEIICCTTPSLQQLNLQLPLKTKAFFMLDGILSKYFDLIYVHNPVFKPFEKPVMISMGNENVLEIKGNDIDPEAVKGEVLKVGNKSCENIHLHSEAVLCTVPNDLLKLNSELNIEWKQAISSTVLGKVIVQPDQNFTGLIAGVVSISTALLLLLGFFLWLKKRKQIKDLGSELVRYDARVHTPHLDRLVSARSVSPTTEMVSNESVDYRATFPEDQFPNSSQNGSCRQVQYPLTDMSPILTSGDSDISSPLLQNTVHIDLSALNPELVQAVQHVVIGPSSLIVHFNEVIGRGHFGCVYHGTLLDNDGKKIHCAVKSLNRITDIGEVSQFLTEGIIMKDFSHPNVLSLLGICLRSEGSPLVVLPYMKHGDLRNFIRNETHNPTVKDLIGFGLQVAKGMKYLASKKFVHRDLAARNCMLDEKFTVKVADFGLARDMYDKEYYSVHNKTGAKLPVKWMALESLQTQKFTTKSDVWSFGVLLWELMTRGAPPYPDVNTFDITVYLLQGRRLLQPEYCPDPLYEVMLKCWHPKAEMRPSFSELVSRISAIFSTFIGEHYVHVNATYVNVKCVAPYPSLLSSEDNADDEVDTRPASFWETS
Experiment: cell-based or functional assay
Endpoint name: IC50, in vitro cytotoxicity, NCI-H596, +HGF (nM)

Binder | Quantity unit | Assay result
ADC3c (antibody, human IgG1, kappa, V domains shown, vc-seco-DUBA linker-drug on the engineered cysteine at HC position 41 (Kabat); DAR 1.8) VH: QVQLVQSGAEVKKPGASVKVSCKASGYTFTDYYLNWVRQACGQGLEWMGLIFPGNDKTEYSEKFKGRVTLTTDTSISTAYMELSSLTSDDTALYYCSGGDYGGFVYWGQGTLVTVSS VL: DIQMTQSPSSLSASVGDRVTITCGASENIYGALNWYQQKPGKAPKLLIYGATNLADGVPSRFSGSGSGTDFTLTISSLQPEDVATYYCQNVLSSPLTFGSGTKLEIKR | nM | 1.89

Where do the numbers come from? From patent US20240376214A1.
